Target: TAF1-BD1 (Homo sapiens, UniProt P21675)
Assay: TAF1-BD1 TR-FRET Binding Assay
Conditions: read-out: TAF1-BD1 HTRF IC50
pIC50: −log10 of the molar value.
Threshold check on pIC50: at or above 6 gives true (1), strictly below gives false (0).

molecule="CCOC(=O)c1c(C)[nH]c2c(=O)n(C)cc(C#CC(C)(O)c3cccc(F)c3)c12 (centres unmarked) [Example 33]" target_entity="TAF1-BD1 (Homo sapiens, UniProt P21675)" class_name="true (1)"
molecule="C=CCCn1cc(C#C[C@](C)(O)c2cc(C)on2)c2c(C(=O)OCC)c(C)[nH]c2c1=O [Example 71]" target_entity="TAF1-BD1 (Homo sapiens, UniProt P21675)" class_name="false (0)"
molecule="CCOC(=O)c1c(C)[nH]c2c(=O)n(C)cc(C#CC(O)(c3cccc(Oc4ccccc4)c3)C(F)(F)F)c12 (centres unmarked) [Example 90]" target_entity="TAF1-BD1 (Homo sapiens, UniProt P21675)" class_name="false (0)"
molecule="CCOC(=O)c1c(C)[nH]c2c(=O)n(C)cc(C#CC(O)(c3ccccc3)C(F)F)c12 (single isomer, unassigned) [Example 93b]" target_entity="TAF1-BD1 (Homo sapiens, UniProt P21675)" class_name="true (1)"
molecule="Cc1[nH]c2c(=O)n(C)cc(C#CC(C)(C)O)c2c1C(=O)OCC1CCCC1 [Example 148]" target_entity="TAF1-BD1 (Homo sapiens, UniProt P21675)" class_name="true (1)"
molecule="CCOC(=O)c1c(C)[nH]c2c(=O)n(C)cc(C#CC(O)(c3cccc(-c4ccccc4OC)c3)C(F)(F)F)c12 (centres unmarked) [Example 101]" target_entity="TAF1-BD1 (Homo sapiens, UniProt P21675)" class_name="false (0)"
molecule="CCOC(=O)c1c(C)[nH]c2c(=O)n(C)cc(C#CCCO)c12 [Example 82]" target_entity="TAF1-BD1 (Homo sapiens, UniProt P21675)" class_name="false (0)"
molecule="CCOC(=O)c1c(C)[nH]c2c(=O)n(C)cc(C#CC3(O)CCN(C)C3=O)c12 (centres unmarked) [Example 74]" target_entity="TAF1-BD1 (Homo sapiens, UniProt P21675)" class_name="false (0)"
molecule="Cc1[nH]c2c(=O)n(C)cc(C#CC(C)(O)CC#N)c2c1C(=O)OCC(C)C (centres unmarked) [Example 154]" target_entity="TAF1-BD1 (Homo sapiens, UniProt P21675)" class_name="true (1)"
molecule="Cc1nnc(-c2c(C)[nH]c3c(=O)n(C)cc(C#CC(C)(C)O)c23)o1 [Example 177]" target_entity="TAF1-BD1 (Homo sapiens, UniProt P21675)" class_name="true (1)"
molecule="CCOC(=O)c1c(C)[nH]c2c(=O)n(C)cc(C#CC(C)(O)C(C)C)c12 (centres unmarked) [Example 70]" target_entity="TAF1-BD1 (Homo sapiens, UniProt P21675)" class_name="true (1)"
molecule="CCOC(=O)c1c(C)[nH]c2c(=O)n(C)cc(C#CC3(O)COC3)c12 [Example 30]" target_entity="TAF1-BD1 (Homo sapiens, UniProt P21675)" class_name="true (1)"
molecule="Cc1[nH]c2c(=O)n(C)cc(C#CC(C)(O)C(C)C)c2c1C(=O)OCC(C)C (centres unmarked) [Example 128]" target_entity="TAF1-BD1 (Homo sapiens, UniProt P21675)" class_name="true (1)"
molecule="Cc1[nH]c2c(=O)n(C)cc(C#CC(C)(C)O)c2c1C(=O)OCc1ccccn1 [Example 115]" target_entity="TAF1-BD1 (Homo sapiens, UniProt P21675)" class_name="true (1)"
molecule="CC(=O)NCCC(C)(C)OC(=O)c1c(C)[nH]c2c(=O)n(C)cc(C#CC(C)(C)O)c12 [Example 164]" target_entity="TAF1-BD1 (Homo sapiens, UniProt P21675)" class_name="true (1)"
molecule="Cc1[nH]c2c(=O)n(C)cc(C#CC(C)(C)O)c2c1C(=O)O [Example 200]" target_entity="TAF1-BD1 (Homo sapiens, UniProt P21675)" class_name="false (0)"
molecule="CCOC(=O)c1c(C)[nH]c2c(=O)n(C)cc(C#CC(O)(c3ccccc3)C(F)(F)F)c12 (centres unmarked) [Example 73]" target_entity="TAF1-BD1 (Homo sapiens, UniProt P21675)" class_name="true (1)"
molecule="Cc1[nH]c2c(=O)n(C)cc(C#CC(C)(C)O)c2c1C(=O)OC(C)(C)CCN [Example 165]" target_entity="TAF1-BD1 (Homo sapiens, UniProt P21675)" class_name="true (1)"
molecule="C=CCCn1cc(C#CC(C)(C)O)c2c(C(=O)OCC)c(C)[nH]c2c1=O [Example 49]" target_entity="TAF1-BD1 (Homo sapiens, UniProt P21675)" class_name="false (0)"
molecule="Cc1ccccc1COC(=O)c1c(C)[nH]c2c(=O)n(C)cc(C#CC(C)(C)O)c12 [Example 121]" target_entity="TAF1-BD1 (Homo sapiens, UniProt P21675)" class_name="true (1)"
molecule="Cc1[nH]c2c(=O)n(C)cc(C#CC(C)(O)C3CC3)c2c1-c1nnc(C2CCOC2)o1 (centres unmarked) [Example 175]" target_entity="TAF1-BD1 (Homo sapiens, UniProt P21675)" class_name="true (1)"
molecule="CCc1nnc(-c2c(C)[nH]c3c(=O)n(C)cc(C#CC(C)(O)C4CC4)c23)o1 (centres unmarked) [Example 181]" target_entity="TAF1-BD1 (Homo sapiens, UniProt P21675)" class_name="true (1)"
molecule="CCOC(=O)c1c(C)[nH]c2c(=O)n(CC)cc(C#CC(C)(C)O)c12 [Example 50]" target_entity="TAF1-BD1 (Homo sapiens, UniProt P21675)" class_name="false (0)"
molecule="CCCCC(C)(C)OC(=O)c1c(C)[nH]c2c(=O)n(C)cc(C#CC(C)(O)C3CC3)c12 (centres unmarked) [Example 137]" target_entity="TAF1-BD1 (Homo sapiens, UniProt P21675)" class_name="true (1)"
